- TARGET OF ASSAY: TRIM25 439-630 SPRY (domain begin residue: 439, domain end residue: 630), Q14258
- Sequence (Q14258 whole entry): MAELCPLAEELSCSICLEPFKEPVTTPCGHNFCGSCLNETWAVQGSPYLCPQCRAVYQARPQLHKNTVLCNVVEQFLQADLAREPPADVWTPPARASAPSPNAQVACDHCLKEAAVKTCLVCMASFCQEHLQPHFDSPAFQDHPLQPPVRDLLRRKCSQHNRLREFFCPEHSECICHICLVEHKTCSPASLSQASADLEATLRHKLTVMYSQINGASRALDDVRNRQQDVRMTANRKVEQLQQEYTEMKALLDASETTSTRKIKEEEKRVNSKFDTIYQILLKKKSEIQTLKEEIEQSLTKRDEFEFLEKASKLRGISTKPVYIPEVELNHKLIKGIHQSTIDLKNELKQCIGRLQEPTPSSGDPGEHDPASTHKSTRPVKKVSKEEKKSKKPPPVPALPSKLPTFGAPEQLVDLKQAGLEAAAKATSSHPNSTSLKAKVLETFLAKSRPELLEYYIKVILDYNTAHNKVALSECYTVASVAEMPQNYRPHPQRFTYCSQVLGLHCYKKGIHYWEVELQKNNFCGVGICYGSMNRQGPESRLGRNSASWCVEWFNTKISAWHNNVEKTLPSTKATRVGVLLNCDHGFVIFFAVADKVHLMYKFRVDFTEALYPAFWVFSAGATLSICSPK
- METHOD SUMMARY: phage ELISA signal ratio (GST-PRM binding over GST background); higher = stronger binding of peptide-phage to the PRM
ASSAY READOUT: phage ELISA signal ratio
Answer with a bare number; do not write a unit.

Observe how each entry below is paired with its result.
TVFWDGMYDWPVEMDI	21
FETPWQIEDVWGMAGF	27.1
FEDGWMYQDFLKAPET	9.36

Attention now shifts to the item below.
Query: Dear colleague, please send me the reported phage ELISA signal ratio for VVGDGMAFERWFQDFE when you can.
Reply: 14.5

Values were extracted from the supplement of paper PMC7724964.
